Data provenance is paper PMC6886308.

- Substrate: NC(=O)C1=CN([C@@H]2O[C@H](COP(=O)(O)OP(=O)(O)OC[C@H]3O[C@@H](n4cnc5c(N)ncnc54)[C@H](OP(=O)(O)O)[C@@H]3O)[C@@H](O)[C@H]2O)C=CC1
- protocol.description: NADPH-dependent diaphorase assay
- Assay type: biochemical, Zea mays
- condition.notes: DCPIP as electron acceptor
metric.name: kcat (s⁻¹)
Answer format: numeric, s⁻¹ implied, no suffix.

Problem: Look up kcat for this protein: maize leaf FNR (L‐FNR) (Zea mays; R276Q) (protein, recombinant mature leaf FNR, FAD flavoprotein, C-terminal Tyr314) IRAQASAVEAPATAKAKKESKKQEEGVVTNLYKPKEPYVGRCLLNTKITGDDAPGETWHMVFSTEGKIPYREGQSIGVIADGVDKNGKPHKVRLYSIASSAIGDFGDSKTVSLCVKRLIYTNDAGEIVKGVCSNFLCDLQPGDNVQITGPVGKEMLMPKDPNATIIMLATGTGIAPFRSFLWKMFFEKHDDYKFNGLGWLFLGVPTSSSLLYKEEFGKMKERAPENFRVDYAVSQEQTNAAGERMYIQTRMAEYKEELWELLKKDNTYVYMCGLKGMEKGIDDIMVSLAEKDGIDWFDYKKQLKRGDQWNVEVY
Solution: 60
